Target: Adenosine receptor A3 (Homo sapiens, UniProt P0DMS8)
Sequence (P0DMS8 whole entry): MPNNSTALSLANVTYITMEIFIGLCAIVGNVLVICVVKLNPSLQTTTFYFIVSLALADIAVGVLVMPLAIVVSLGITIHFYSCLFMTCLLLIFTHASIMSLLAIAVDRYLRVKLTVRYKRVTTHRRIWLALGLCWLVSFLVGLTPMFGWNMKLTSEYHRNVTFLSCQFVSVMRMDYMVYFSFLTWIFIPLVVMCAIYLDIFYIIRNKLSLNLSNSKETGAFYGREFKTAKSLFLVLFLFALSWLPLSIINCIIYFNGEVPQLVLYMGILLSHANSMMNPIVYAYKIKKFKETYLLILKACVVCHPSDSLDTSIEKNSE

{"Molecule": "CCN(C)C1CCCc2ccncc21.O=C(O)/C=C\\C(=O)O.O=C(O)/C=C\\C(=O)O (stereo unspecified)", "Ki": "> 10 µM"}

###

target: Kappa-type opioid receptor (Homo sapiens, UniProt P41145)
Sequence (P41145 whole entry): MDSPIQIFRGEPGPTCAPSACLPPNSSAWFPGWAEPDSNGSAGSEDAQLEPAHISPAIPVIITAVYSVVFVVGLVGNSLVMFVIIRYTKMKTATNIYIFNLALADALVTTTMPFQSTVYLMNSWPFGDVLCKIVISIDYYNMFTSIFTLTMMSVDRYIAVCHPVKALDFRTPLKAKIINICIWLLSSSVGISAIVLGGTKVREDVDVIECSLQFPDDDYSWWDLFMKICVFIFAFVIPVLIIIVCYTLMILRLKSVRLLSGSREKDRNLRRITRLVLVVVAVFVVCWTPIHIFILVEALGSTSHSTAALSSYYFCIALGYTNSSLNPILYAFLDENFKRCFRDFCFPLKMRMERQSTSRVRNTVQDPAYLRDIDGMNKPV
pKi: −log10 of the molar value.
Readout kind: pKi

{"Compound": "CCN(C)C1CCCc2ccncc21.O=C(O)/C=C\\C(=O)O.O=C(O)/C=C\\C(=O)O (stereo unspecified)", "Target or system": "Kappa-type opioid receptor (Homo sapiens, UniProt P41145)", "Result": "< 5.00"}

###

Biological target: 5-hydroxytryptamine receptor 1A (Homo sapiens, UniProt P08908)
Sequence (P08908 whole entry): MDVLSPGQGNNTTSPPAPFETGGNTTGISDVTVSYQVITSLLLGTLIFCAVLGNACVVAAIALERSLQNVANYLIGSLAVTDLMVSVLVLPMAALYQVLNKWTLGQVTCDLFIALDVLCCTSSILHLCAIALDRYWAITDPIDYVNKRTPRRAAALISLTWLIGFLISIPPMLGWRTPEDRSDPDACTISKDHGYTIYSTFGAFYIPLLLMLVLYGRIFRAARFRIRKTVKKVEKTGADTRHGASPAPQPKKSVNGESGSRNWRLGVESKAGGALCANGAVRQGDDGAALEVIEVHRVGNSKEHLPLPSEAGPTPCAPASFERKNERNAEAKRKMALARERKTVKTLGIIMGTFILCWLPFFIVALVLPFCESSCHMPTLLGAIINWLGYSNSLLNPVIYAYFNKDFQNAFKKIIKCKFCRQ
Readout kind: Ki

{"Compound": "CCN(C)C1CCCc2ccncc21.O=C(O)/C=C\\C(=O)O.O=C(O)/C=C\\C(=O)O (stereo unspecified)", "Readout kind": "Ki", "Result": "> 10 µM"}

###

biological target: UniProtKB P07550
Sequence (P07550 whole entry): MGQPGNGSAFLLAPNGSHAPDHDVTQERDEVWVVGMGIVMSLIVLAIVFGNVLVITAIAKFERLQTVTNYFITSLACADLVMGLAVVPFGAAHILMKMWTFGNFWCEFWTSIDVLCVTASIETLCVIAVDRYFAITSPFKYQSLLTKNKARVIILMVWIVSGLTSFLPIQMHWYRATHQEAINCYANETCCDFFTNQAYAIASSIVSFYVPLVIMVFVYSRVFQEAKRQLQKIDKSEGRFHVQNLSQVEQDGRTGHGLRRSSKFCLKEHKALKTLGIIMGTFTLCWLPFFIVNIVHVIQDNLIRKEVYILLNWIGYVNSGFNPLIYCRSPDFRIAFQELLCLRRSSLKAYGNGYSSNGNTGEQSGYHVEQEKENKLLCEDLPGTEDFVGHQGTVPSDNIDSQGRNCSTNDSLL

{"Compound": "CCN(C)C1CCCc2ccncc21.O=C(O)/C=C\\C(=O)O.O=C(O)/C=C\\C(=O)O (stereo unspecified)", "Target or system": "UniProtKB P07550", "Ki": "> 10 µM"}

###

target: Mu-type opioid receptor (Homo sapiens)
Sequence (P35372 whole entry): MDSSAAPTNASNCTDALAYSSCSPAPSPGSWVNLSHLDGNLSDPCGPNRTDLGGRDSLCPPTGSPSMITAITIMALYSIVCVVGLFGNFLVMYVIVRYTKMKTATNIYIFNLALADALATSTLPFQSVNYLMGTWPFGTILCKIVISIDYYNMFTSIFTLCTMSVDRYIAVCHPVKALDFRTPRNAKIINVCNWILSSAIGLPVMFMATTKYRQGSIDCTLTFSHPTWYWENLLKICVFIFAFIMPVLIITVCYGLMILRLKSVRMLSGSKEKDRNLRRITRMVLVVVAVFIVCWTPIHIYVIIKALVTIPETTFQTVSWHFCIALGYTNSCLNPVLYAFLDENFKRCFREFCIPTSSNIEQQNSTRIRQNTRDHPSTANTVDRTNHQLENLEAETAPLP
pKi: −log10 of the molar value.

{"Compound": "CCN(C)C1CCCc2ccncc21.O=C(O)/C=C\\C(=O)O.O=C(O)/C=C\\C(=O)O (stereo unspecified)", "pKi": "< 5.00"}

###

biological target: 5-hydroxytryptamine receptor 2B (Homo sapiens, UniProt P41595)
Sequence (P41595 whole entry): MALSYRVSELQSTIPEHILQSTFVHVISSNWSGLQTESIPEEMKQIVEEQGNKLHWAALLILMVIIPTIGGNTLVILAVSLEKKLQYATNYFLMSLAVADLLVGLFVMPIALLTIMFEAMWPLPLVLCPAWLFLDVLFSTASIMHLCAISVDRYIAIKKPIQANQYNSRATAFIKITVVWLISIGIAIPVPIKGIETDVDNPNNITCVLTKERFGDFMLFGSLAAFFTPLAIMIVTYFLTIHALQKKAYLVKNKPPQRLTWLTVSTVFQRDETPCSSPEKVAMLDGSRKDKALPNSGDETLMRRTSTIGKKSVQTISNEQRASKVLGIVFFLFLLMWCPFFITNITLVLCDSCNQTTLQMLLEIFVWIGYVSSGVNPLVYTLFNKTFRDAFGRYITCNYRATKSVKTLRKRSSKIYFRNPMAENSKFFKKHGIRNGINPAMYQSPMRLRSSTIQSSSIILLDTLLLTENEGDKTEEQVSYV

{"Molecule": "CCN(C)C1CCCc2ccncc21.O=C(O)/C=C\\C(=O)O.O=C(O)/C=C\\C(=O)O (stereo unspecified)", "Ki": "> 10 µM"}

###

target: D(1A) dopamine receptor (Homo sapiens); assay: Affinity towards human Dopamine receptor D1
Sequence (P21728 whole entry): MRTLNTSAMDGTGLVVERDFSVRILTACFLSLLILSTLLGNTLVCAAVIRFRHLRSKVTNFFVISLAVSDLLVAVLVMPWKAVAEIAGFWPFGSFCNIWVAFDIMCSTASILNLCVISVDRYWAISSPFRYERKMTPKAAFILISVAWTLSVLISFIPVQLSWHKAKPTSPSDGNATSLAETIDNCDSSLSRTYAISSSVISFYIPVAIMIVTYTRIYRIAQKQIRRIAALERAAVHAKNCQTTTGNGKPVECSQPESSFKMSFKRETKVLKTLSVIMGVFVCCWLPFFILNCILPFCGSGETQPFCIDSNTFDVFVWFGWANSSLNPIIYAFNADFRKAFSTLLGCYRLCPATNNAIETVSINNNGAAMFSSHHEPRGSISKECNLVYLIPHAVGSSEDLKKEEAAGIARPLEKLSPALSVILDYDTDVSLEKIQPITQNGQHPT

{"Compound": "CCN(C)C1CCCc2ccncc21.O=C(O)/C=C\\C(=O)O.O=C(O)/C=C\\C(=O)O (stereo unspecified)", "Ki": "> 10 µM"}

###

target: D(2) dopamine receptor (Homo sapiens); experiment: Affinity towards human dopamine receptor D2
Sequence (P14416 whole entry): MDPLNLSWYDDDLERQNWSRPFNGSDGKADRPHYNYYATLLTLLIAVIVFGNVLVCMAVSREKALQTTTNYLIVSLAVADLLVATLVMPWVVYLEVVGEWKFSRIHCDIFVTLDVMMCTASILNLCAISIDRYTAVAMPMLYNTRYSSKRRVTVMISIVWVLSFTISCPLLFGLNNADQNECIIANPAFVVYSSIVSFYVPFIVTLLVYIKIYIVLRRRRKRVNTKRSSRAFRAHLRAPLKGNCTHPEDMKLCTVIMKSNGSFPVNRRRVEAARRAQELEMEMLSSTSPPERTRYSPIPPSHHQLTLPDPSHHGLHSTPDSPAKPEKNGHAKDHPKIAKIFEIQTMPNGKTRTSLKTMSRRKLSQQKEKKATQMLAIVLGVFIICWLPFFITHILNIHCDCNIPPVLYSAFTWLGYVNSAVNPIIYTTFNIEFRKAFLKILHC

{"Compound": "CCN(C)C1CCCc2ccncc21.O=C(O)/C=C\\C(=O)O.O=C(O)/C=C\\C(=O)O (stereo unspecified)", "Ki": "> 10 µM"}

###

Target: Muscarinic acetylcholine receptor M5 (Homo sapiens, UniProt P08912)
Sequence (P08912 whole entry): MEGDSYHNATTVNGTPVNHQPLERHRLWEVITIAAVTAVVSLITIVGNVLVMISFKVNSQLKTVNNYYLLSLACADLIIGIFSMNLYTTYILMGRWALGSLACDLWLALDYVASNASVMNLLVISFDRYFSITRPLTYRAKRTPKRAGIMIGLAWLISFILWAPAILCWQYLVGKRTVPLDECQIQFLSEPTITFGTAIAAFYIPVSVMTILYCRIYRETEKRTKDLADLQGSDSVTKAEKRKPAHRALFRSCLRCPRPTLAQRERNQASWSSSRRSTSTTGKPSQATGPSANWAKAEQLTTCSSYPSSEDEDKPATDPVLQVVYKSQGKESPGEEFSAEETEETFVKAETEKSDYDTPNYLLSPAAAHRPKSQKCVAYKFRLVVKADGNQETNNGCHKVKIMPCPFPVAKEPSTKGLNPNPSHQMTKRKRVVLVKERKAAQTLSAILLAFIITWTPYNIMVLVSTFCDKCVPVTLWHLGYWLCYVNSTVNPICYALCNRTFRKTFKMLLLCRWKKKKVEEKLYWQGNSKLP
pKi: −log10 of the molar value.

{"Compound": "CCN(C)C1CCCc2ccncc21.O=C(O)/C=C\\C(=O)O.O=C(O)/C=C\\C(=O)O (stereo unspecified)", "pKi": "< 5.00"}

###

target: 5-hydroxytryptamine receptor 5A (Homo sapiens, UniProt P47898)
Sequence (P47898 whole entry): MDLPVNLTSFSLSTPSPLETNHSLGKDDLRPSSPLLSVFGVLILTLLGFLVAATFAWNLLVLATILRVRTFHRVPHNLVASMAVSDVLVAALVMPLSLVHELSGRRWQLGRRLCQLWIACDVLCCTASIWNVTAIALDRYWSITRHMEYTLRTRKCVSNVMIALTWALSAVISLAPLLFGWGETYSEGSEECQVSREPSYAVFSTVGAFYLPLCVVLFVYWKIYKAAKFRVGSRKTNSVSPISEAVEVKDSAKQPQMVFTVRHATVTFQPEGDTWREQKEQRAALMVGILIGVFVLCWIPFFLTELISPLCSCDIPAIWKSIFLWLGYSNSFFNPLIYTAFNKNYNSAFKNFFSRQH
Readout kind: Ki

{"Molecule": "CCN(C)C1CCCc2ccncc21.O=C(O)/C=C\\C(=O)O.O=C(O)/C=C\\C(=O)O (stereo unspecified)", "Readout kind": "Ki", "Result": "> 10 µM"}

###

Target: Muscarinic acetylcholine receptor M2 (Homo sapiens)
Sequence (P08172 whole entry): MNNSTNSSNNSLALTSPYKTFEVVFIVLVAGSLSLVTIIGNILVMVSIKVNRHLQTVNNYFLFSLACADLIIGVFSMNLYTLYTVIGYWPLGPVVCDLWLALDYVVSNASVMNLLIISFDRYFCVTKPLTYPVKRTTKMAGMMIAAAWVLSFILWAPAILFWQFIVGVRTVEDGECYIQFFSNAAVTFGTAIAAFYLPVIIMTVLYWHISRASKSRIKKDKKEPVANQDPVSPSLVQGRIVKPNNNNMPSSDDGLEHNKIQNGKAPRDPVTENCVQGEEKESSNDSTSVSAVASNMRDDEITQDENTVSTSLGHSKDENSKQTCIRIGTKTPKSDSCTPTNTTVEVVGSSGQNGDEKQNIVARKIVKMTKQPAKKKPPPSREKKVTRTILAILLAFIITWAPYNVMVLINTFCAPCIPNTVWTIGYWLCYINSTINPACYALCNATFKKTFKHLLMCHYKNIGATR

{"Compound": "CCN(C)C1CCCc2ccncc21.O=C(O)/C=C\\C(=O)O.O=C(O)/C=C\\C(=O)O (stereo unspecified)", "Target or system": "Muscarinic acetylcholine receptor M2 (Homo sapiens)", "Ki": "> 10 µM"}

###

biological target: Histamine H2 receptor (Homo sapiens, UniProt P25021)
Sequence (P25021 whole entry): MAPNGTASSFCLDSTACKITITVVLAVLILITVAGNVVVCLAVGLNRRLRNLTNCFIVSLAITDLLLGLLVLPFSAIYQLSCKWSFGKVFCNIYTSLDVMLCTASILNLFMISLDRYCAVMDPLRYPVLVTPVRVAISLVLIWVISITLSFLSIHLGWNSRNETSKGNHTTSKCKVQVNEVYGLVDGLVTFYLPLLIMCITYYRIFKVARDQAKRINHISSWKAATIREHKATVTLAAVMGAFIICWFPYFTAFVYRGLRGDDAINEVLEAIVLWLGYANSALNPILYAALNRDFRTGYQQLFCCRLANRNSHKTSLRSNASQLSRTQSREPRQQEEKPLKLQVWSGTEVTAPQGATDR
pKi: −log10 of the molar value.

{"Compound": "CCN(C)C1CCCc2ccncc21.O=C(O)/C=C\\C(=O)O.O=C(O)/C=C\\C(=O)O (stereo unspecified)", "Target or system": "Histamine H2 receptor (Homo sapiens, UniProt P25021)", "pKi": "< 5.00"}

###

molecular target: Delta-type opioid receptor (Homo sapiens); test: Affinity towards opioid receptor delta 1
Sequence (P41143 whole entry): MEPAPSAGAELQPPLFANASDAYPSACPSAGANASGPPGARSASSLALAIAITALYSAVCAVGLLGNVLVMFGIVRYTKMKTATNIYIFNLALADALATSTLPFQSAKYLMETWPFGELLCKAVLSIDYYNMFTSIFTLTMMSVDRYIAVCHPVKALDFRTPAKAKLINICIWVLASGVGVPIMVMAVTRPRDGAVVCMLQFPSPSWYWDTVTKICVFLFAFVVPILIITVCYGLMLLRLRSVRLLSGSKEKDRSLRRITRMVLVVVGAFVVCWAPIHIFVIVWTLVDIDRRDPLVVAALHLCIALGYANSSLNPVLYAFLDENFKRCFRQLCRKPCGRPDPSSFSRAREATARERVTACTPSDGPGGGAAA
pKi: −log10 of the molar value.
Readout kind: pKi

{"Compound": "CCN(C)C1CCCc2ccncc21.O=C(O)/C=C\\C(=O)O.O=C(O)/C=C\\C(=O)O (stereo unspecified)", "Result": "< 5.00"}

###

target: UniProt P28222
Sequence (P28222 whole entry): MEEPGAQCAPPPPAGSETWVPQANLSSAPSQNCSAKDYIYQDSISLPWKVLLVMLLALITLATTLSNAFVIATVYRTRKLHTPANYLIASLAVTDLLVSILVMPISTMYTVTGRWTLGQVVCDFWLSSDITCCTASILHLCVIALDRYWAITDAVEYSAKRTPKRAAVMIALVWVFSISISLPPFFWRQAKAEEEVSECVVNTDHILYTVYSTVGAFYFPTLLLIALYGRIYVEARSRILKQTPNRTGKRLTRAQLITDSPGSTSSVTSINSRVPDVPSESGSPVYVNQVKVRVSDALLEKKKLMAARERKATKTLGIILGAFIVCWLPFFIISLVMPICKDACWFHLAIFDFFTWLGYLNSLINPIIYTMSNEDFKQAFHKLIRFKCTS
Readout kind: Ki

{"Compound": "CCN(C)C1CCCc2ccncc21.O=C(O)/C=C\\C(=O)O.O=C(O)/C=C\\C(=O)O (stereo unspecified)", "Result": "> 10 µM"}

###

target: Muscarinic acetylcholine receptor M1 (Homo sapiens, UniProt P11229)
Sequence (P11229 whole entry): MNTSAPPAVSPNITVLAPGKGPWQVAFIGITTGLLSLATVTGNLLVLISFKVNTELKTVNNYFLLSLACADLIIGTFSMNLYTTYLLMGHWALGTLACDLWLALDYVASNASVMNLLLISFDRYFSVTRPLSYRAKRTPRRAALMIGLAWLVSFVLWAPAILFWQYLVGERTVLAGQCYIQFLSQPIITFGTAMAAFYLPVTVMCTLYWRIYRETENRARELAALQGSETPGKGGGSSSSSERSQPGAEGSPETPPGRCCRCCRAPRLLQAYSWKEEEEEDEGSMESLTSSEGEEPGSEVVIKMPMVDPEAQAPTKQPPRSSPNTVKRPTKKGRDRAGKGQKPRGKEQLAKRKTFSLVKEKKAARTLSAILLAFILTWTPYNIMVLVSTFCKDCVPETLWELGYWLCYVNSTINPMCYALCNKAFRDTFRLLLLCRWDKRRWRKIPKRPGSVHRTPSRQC
pKi: −log10 of the molar value.
Readout kind: pKi

{"Compound": "CCN(C)C1CCCc2ccncc21.O=C(O)/C=C\\C(=O)O.O=C(O)/C=C\\C(=O)O (stereo unspecified)", "Target or system": "Muscarinic acetylcholine receptor M1 (Homo sapiens, UniProt P11229)", "Readout kind": "pKi", "Result": "< 5.00"}

###

molecular target: Adenosine receptor A1 (Homo sapiens)

{"Compound": "CCN(C)C1CCCc2ccncc21.O=C(O)/C=C\\C(=O)O.O=C(O)/C=C\\C(=O)O (stereo unspecified)", "Ki": "> 10 µM"}

###

target: D(3) dopamine receptor (Homo sapiens)
Sequence (P35462 whole entry): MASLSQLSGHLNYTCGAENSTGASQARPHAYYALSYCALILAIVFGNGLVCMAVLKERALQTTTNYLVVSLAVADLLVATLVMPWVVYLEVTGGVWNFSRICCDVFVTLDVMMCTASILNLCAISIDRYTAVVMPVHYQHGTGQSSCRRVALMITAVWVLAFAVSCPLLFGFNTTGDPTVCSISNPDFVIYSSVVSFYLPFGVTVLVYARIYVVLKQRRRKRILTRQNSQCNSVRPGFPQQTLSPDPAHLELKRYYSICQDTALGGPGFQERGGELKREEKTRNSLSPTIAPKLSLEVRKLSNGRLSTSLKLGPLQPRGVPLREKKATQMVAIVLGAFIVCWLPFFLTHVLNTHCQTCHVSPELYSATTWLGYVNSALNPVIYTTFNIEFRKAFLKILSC
Readout kind: Ki

{"Molecule": "CCN(C)C1CCCc2ccncc21.O=C(O)/C=C\\C(=O)O.O=C(O)/C=C\\C(=O)O (stereo unspecified)", "Result": "> 10 µM"}

###

Target: Muscarinic acetylcholine receptor M4 (Homo sapiens, UniProt P08173)
Sequence (P08173 whole entry): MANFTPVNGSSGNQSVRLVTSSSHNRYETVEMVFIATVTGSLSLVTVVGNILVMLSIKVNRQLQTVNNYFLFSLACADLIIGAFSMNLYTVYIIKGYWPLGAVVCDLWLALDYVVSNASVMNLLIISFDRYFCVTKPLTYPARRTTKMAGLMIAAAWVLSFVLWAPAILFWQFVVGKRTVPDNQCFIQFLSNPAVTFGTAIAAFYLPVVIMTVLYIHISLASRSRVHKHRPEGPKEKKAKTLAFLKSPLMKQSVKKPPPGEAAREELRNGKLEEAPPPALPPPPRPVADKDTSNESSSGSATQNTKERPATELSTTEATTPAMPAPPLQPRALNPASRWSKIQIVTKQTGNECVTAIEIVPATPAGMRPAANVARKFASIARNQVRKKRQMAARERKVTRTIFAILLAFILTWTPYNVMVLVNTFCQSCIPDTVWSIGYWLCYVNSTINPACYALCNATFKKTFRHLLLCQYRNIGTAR
pKi: −log10 of the molar value.

{"Molecule": "CCN(C)C1CCCc2ccncc21.O=C(O)/C=C\\C(=O)O.O=C(O)/C=C\\C(=O)O (stereo unspecified)", "pKi": "< 5.00"}
